Data provenance is a melting point compilation (Tetko et al.; mined from patent text by program, amines drawn as free bases though some values may be those of a salt).

Listing: melting point of selected molecules

Example molecules with recorded melting point:
COc1ccc(S(=O)(=O)C2(CCCC#Cc3cccc(N)c3)SC(=O)NC2=O)cc1 (stereo not given) | 135 to 138 °C
CS(=O)c1cc(-c2nc(=O)c3ccccc3s2)ccn1 (stereo not given) | 172 to 174 °C
CON(C)C(=O)Nc1c(C(=O)c2cc(C)ccn2)[nH]c2cc(Cl)ccc12 | 199 to 200 °C
CCN(CC)C(=O)c1nc(/C=C/c2ccc([N+](=O)[O-])o2)no1 | 118 to 119 °C

Reported melting point for CN(CC(=O)O)S(=O)(=O)c1csc2ccccc12 : what is it?
139 to 140 °C

###

Listing: melting point of selected molecules

Example molecules with recorded melting point:
O=C(NCCO)c1cccc(-c2ccnc3cc(Cc4cccc(C(F)(F)F)c4)oc23)c1 | 158 to 159 °C
N#CC(C(=O)Nc1ccccc1)C(=O)c1nn(-c2ccccc2)c2c1Cc1ccc(Cl)cc1-2 (centres undefined) | 259 to 263 °C
CCCCCCCCCCCCc1cnn(C(C(=O)Nc2c(OC)cc(OC)cc2OC)c2ccccc2)n1 (centres undefined) | 123 to 125 °C

Reported melting point for Cc1ncccc1O[C@@H]1COc2ccc(OCc3ccccc3)cc2[C@@H]1O (relative stereo) : what is it?
133 to 134 °C

Reported melting point for O=C(c1ccccc1)c1cnc2c(-c3cc(-c4ccccc4)cs3)cnn2c1O : what is it?
277 to 290 °C

Reported melting point for Cc1nc2ccccc2n2cnc(-c3noc(C4CC4)n3)c12 : what is it?
165 to 167 °C

Reported melting point for CC(=Cc1ccccc1Br)c1ccc2c(c1)C(C)(C)CCC2(C)C : what is it?
116 to 117 °C

Reported melting point for Cc1nnc2n1-c1ccc([N+](=O)[O-])cc1C(c1ccccc1Cl)=CC2 : what is it?
225 to 227 °C

Reported melting point for Oc1ccccc1Oc1ccc(-c2ccsc2)cc1O : what is it?
114 to 116 °C

###

Listing: melting point of selected molecules

Example molecules with recorded melting point:
Fc1ccccc1-c1ccc(Br)cc1F | 45 to 46 °C
CC(=O)OC1CSC(Oc2ccc(C)nc2-c2cccnc2)C(OC(C)=O)C1OC(C)=O (stereo unspecified) | 92 to 102 °C
O=C(N[C@@H]1CCc2ccccc21)c1nn(-c2ccc(F)cc2F)c2c1C1CCC2C1 (stereo partly specified) | 158 to 161 °C
CS(=O)(=O)Nc1cccc(Nc2nc(NC3CCC3)c3nc[nH]c3n2)c1 | 142 to 146 °C
O=C1Nc2ccccc2C(=O)N2CC[C@@H]12 | 217 to 218 °C
N=C(NO)c1nn(-c2c(Cl)cc(C(F)(F)F)cc2Cl)c(C=NO)c1SC(F)(F)F | 68 to 72 °C
Cc1cn(C2OC(C)(CO)C(O)C2F)c(=O)[nH]c1=O (stereo unspecified) | 80 °C
Cn1c(=O)c2nc(-c3ccc(/C=C/C(=O)O)cc3)[nH]c2n(Cc2ccccc2)c1=O | > 300 °C

Reported melting point for N#Cc1cc(-c2nccs2)[nH]c1C(CC1CCOCC1)c1ccc(S(=O)(=O)C2CC2)cc1 (stereo unspecified) : what is it?
114 to 116 °C

Reported melting point for O=C1CC(c2cccc(-n3ccnn3)c2)=Nc2ccc(-c3cc(F)ccc3F)cc2N1 : what is it?
231 °C

###

outcomeMeasure: melting point

Example compounds with recorded melting point:
CCOC(=O)CC[C@H](NC(=O)c1ccc(C=Cc2cnc3nc(NC(C)=O)nc(O)c3c2)cc1)C(=O)OCC | > 200 °C
CCOC(=O)C(=O)c1ccccc1Nc1c(Cl)cccc1Cl | 84 to 85.5 °C
CC(C)C[C@H](NC(=O)c1ccc(C(=N)N)cc1)C(=O)N1CCc2nn(CC(=O)O)cc2C1 | 165 to 169 °C
Nc1ccc(-c2nc3ccc(Br)cc3s2)cc1 | 219 to 221 °C
CCOC(=O)C(CC)Sc1nc2c([nH]1)c(=O)n(C)c(=O)n2C (stereo not given) | 175 °C
O=C(Nc1nc(C(Cl)(Cl)Cl)ns1)C(F)(F)F | 116 °C
CCn1ncc2c(NCC3CCCCC3)c3cc(C(=O)OC)ccc3nc21 | 275 to 277 °C
C=COCCN1C(=O)N(CN2C(=O)N(CCOC=C)C(=O)C2(C)C)C(C)(C)C1=O | 90 to 92 °C
NC(=O)c1sc2nccc(N3CCN(C/C=C/c4ccccc4)CC3)c2c1N | 225 to 227 °C
CC1=c2c(cc3c(c2C)C=C(C(=O)OCc2ccccc2)N=3)N=C1C(=O)OCc1ccccc1 | 197 to 200 °C

Reported melting point for Oc1ccccc1-c1nc(-c2ccccc2O)n(Cc2cccnc2)n1 : what is it?
174 to 176 °C

Reported melting point for O=C(Nc1cccc2c1C(=O)c1c-2n[nH]c1-c1ccc(C(=O)N2CCC(N3CCCC3)CC2)s1)NN1CCOCC1 : what is it?
228 °C

Reported melting point for COC(=O)c1ccc(NC(=O)C(CC2CCCC2)c2ccc(N)cc2)nc1 (stereo not given) : what is it?
65 to 68 °C

Reported melting point for COc1cc(-c2cccc3ccccc23)nc(N)n1 : what is it?
160 °C

Reported melting point for CCCC(=O)Oc1ccc(S(=O)(=O)CS(N)(=O)=O)cc1 : what is it?
160 to 161 °C

Reported melting point for COC(=O)c1cc(C)c(C(OC(=O)C(C)NS(=O)(=O)c2ccc(Cl)cc2)c2cc(-n3ccnc3)ccc2C)c(C)c1 (stereo not given) : what is it?
126 to 128 °C

Reported melting point for Cc1nc2cc(C(c3ccccc3)n3ccnc3)ccc2n(N)c1=O (stereo not given) : what is it?
193 °C

Reported melting point for COc1ccc(-c2nc(CNC(C)(C)C)nc3cc(OC)c(OC)cc23)cc1OC : what is it?
120 to 122 °C

###

outcomeMeasure: melting point

Example compounds with recorded melting point:
COc1cc(OC)cc(C(=O)Nc2ccc3ccc(Cl)nc3n2)c1 | 235 °C
CC1Cc2cccc(S(N)(=O)=O)c2OS1(=O)=O (stereo not given) | 185 to 186 °C
Cc1cc(C(O)(c2ccc3c(cnn3-c3ccc(F)cc3)c2)C(F)(F)F)cn(C)c1=O (stereo not given) | > 200 °C

Reported melting point for O=C(NCc1ccc(Cl)cc1)c1cn(N2CCCCC2)c2ccc(CN3CCOCC3)cc2c1=O : what is it?
161 to 164 °C

Reported melting point for Cc1cccc(-c2[nH]c(C(C)C)nc2-c2cccc(-c3ccc([N+](=O)[O-])cc3)c2)n1 : what is it?
95 to 105 °C

###

Listing: melting point of selected molecules

COC(=O)c1cccc(OC)c1S(=O)(=O)Cl | 106 to 108 °C
CC1SC(=O)NN=C1c1ccc2c(c1)C(=NNc1ccc(C(C)(C)C)cc1)C(=O)N2 (centres undefined) | 299 °C
O=C1CCCc2c(cccc2OCC2CO2)N1 (centres undefined) | 121 to 123 °C

Reported melting point for Nc1cc(F)c(N2CCOCC2)cc1Cl : what is it?
89.5 °C

Reported melting point for CN(C)c1cccc(OCC(=O)C=P(c2ccccc2)(c2ccccc2)c2ccccc2)c1 : what is it?
110 to 115 °C

Reported melting point for CN1Cc2ccccc2[C@H]2c3cccc4[nH]cc(c34)C[C@@H]21 (relative stereo) : what is it?
215 °C

Reported melting point for COc1cc2c(c3c1OC(C)(C)C3)C(c1cccnc1)=NC(C)(C)C2 : what is it?
113 to 114 °C

Reported melting point for Cc1cc(C(=O)CBr)c(C)o1 : what is it?
56 to 58 °C

Reported melting point for CC(C)CC(=O)Nc1ccc(-c2ccncc2)cc1 : what is it?
166 to 176 °C

Reported melting point for CCCn1nc(-c2ccc(OC(=O)CC)cc2)c2cccc(Cl)c21 : what is it?
66 to 67 °C

###

outcomeMeasure: melting point

CNC(=O)C(Cc1ccc(OC)cc1)NC(=O)C(CC(C)C)C(S)CC(=O)OC (stereo unspecified) | 80 to 86 °C

Reported melting point for CC(C)(NC(=O)c1cc2c(n(CC3CCCCC3)c1=O)CCCCCC2)C(=O)O : what is it?
177 to 180 °C

Reported melting point for CC(C)NC(C)Cc1ccc(O)cn1 (stereo unspecified) : what is it?
135 to 138 °C

Reported melting point for Nc1cccc(-c2ccc(-c3ccccc3)cc2)c1N : what is it?
203 to 206 °C

Reported melting point for [N-]=[N+]=Nc1ccc(C=Cc2ccncc2)cc1 : what is it?
88.2 to 89.4 °C

Reported melting point for CN1C(=O)CC[C@]2(C)c3ccc(-c4ccc([N+](=O)[O-])cc4C(F)(F)F)cc3CC[C@@H]12 : what is it?
128 to 130 °C

Reported melting point for CC[C@H](C)[C@H](NC[C@@H](N)CS)C(=O)N[C@@H](Cc1ccccc1)C(=O)N[C@@H](CCSC)C(=O)OCc1ccccc1 : what is it?
71 to 78 °C

Reported melting point for O=C(O)C=C(Oc1ccc(OC(F)(F)F)cc1)C(=O)O : what is it?
208 to 210 °C

Reported melting point for CSc1c(S(N)(=O)=O)ccn1C : what is it?
135 to 137 °C

Reported melting point for CCN1CCCC1CNC(=O)c1cc(Cl)c(O)cc1OC (stereo unspecified) : what is it?
185 to 186 °C

Reported melting point for CCOC(=O)CCCNc1cc(OC)c(OC)cc1C(C)=O : what is it?
74 to 76 °C

Reported melting point for CCOc1cc2c(Nc3ccc(OC)cc3)c(C(=O)O)cnc2nc1C : what is it?
259 to 263 °C

Reported melting point for Nc1ccc(-c2nc3ccccc3s2)cc1Br : what is it?
160 to 161 °C

Reported melting point for O=C(C=C(O)c1ccccc1O)c1cn(S(=O)(=O)c2ccccc2)c2ccc(Cl)cc12 : what is it?
241 to 244 °C

Reported melting point for Cc1c(Cl)cccc1S(=O)(=O)Nc1ccc2ncncc2c1 : what is it?
> 270 °C

Reported melting point for Cn1cc(C(=O)O)c(=O)c2c3cc(N4CCCC(C)(C)C4)c(F)cc3ncc21 : what is it?
292 to 295 °C

Reported melting point for S=C(NCCc1ccccc1Cl)Nc1nc2ccccc2[nH]1 : what is it?
166 to 169 °C

Reported melting point for C=CCOC(=O)c1ccc(CC(=O)OC(C)(C)C)cc1 : what is it?
68 to 69 °C

Reported melting point for CC1=CC(OC(=O)c2nc[nH]c2C)C(O)C(C)(C)CC1=O (stereo unspecified) : what is it?
99 to 101 °C

Reported melting point for CCc1cnc(N2CCC(c3nc4cc(-c5ccc(S(C)(=O)=O)cc5F)ccc4o3)CC2)nc1 : what is it?
247 to 250 °C

Reported melting point for COC(=O)CC1CC(c2cccc(C3(c4ccc(OC(F)F)cc4)N=C(N)N(C)C3=O)c2)C1 (stereo unspecified) : what is it?
68 to 70 °C
